Each item that follows carries a reported IC50.
biological target: FGFR3 (h) (Homo sapiens); experiment: FGFR3 (enzymatic assay), TR-FRET; type: biochemical; conditions: average values if tested multiple times, read-out: FGFR 3 pIC50 (converted)
Sequence (P22607 23-806): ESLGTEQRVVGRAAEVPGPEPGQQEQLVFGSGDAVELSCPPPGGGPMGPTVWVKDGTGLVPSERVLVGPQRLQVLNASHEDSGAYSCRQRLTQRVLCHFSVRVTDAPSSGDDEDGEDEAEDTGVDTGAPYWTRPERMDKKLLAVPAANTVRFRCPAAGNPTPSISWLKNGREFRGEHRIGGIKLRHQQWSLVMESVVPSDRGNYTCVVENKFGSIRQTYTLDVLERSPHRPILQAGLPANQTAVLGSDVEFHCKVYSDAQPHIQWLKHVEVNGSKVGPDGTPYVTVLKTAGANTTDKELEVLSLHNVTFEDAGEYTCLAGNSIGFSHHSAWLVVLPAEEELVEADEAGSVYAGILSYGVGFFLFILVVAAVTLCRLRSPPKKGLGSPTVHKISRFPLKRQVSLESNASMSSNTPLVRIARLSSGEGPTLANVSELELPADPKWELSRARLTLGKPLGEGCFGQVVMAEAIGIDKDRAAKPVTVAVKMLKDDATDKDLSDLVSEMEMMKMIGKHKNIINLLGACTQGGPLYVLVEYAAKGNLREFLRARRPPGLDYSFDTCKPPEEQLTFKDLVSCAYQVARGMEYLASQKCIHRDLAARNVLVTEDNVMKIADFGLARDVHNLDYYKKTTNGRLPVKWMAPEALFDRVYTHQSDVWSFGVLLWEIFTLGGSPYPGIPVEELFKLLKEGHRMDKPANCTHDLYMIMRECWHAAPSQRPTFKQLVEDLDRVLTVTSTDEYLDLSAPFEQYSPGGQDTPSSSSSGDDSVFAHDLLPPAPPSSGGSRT
Where a name gives a salt, the structure may show the parent alone.
Supply the numeric figure in nM, leaving out any unit text.

COc1cc(OC)cc(N(Cc2ncc[nH]2)c2ccc3ncc(-c4cnn(C)c4)nc3n2)c1 (racemic) [24-DL-tartrate salt] = 0.741
COc1cc(OC)cc(N(CC(O)C(F)(F)F)c2ccc3ncc(-c4cnn(C)c4)nc3n2)c1 (single isomer, unassigned) [Compound 34] = 1.35
COc1cc(OC)cc(N(CC(O)C(F)(F)F)c2ccc3ncc(-c4cnn(C)c4)nc3n2)c1 (stereo not drawn) [Compound 8] = 2
COc1cc(OC)c(F)c(N(CC2CCC(=O)N2)c2ccc3ncc(-c4cnn(C)c4)nc3n2)c1 (stereo not drawn) [Compound 46] = 1.51
COc1cc(OC)c(F)c(N(Cc2cc[nH]n2)c2ccc3ncc(-c4cnn(C)c4)nc3n2)c1 [Compound 118] = 0.589

GET /values?readout=IC50&item= COc1cc(/N=c2\ccc3ncc(-c4cnn(C)c4)nc3n2CC2COC(=O)N2)c(F)c(OC)c1 (single isomer, unassigned) [Compound 112]
0.776

GET /values?readout=IC50&item= COc1cc(/N=c2\ccc3ncc(-c4cnn(C)c4)nc3n2CCNC(C)C)c(F)c(OC)c1 [Compound 37]
8.71

GET /values?readout=IC50&item= COc1cc(OC)c(F)c(N(CCN)c2ccc3ncc(-c4cnn(C)c4)nc3n2)c1F [Compound 67]
1.2

GET /values?readout=IC50&item= COc1cc(OC)c(F)c(N(CC(O)COC(C)C)c2ccc3ncc(-c4cnn(C)c4)nc3n2)c1 (single isomer, unassigned) [Compound 79]
1.66

----------
target: Ba/F3-FGFR3-transfected cells (Homo sapiens, UniProt P22607); construct: BAF3-FGFR3 (MIN IL3) pIC50; other: minus IL3; assay: Ba/F3-FGFR3 (minus IL3) cellular proliferation assay, Alamar Blue; format: cell-based
Sequence (P22607 whole entry, change not shown): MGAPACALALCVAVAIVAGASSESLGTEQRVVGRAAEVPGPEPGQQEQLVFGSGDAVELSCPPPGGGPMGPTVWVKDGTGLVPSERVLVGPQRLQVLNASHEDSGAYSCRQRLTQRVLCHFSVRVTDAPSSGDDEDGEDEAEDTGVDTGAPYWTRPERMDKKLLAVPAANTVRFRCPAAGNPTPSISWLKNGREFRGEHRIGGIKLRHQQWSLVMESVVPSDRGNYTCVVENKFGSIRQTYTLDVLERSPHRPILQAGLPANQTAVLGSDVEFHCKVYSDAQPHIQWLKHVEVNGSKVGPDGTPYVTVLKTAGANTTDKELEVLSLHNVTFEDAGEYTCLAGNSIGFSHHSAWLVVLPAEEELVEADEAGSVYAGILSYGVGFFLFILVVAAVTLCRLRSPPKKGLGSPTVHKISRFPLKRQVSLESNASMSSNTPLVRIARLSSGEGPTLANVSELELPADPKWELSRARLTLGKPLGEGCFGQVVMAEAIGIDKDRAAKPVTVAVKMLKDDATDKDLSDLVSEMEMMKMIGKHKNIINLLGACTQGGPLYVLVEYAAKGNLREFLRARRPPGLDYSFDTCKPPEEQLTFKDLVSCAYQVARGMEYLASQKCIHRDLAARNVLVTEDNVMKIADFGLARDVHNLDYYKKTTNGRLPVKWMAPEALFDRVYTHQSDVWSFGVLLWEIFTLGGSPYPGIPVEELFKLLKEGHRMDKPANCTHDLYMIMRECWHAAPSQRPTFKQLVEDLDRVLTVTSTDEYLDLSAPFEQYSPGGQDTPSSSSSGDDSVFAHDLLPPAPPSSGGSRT
readout_type: BAF3-FGFR3 (MIN IL3) pIC50

# example entries with known answers
COc1cc(OC)c(F)c(N(Cc2nc3c([nH]2)CCNC3)c2ccc3ncc(-c4cnn(C)c4)nc3n2)c1 [Compound 104] = ~6.01
COc1cc(/N=c2\ccc3ncc(-c4cnn(C)c4)nc3n2CC(C)(C)O)c(F)c(OC)c1 [Compound 246] = 7.53
COc1cc(OC)c(F)c(N(Cc2nc(OC)cc(OC)n2)c2ccc3ncc(-c4cnn(C)c4)nc3n2)c1 [Compound 220] = 5.91
COc1cc(OC)c(F)c(N(CC(=O)NC(C)C)c2ccc3ncc(-c4cnn(C)c4)nc3n2)c1 [Compound 249] = 6.83

GET /values?readout=BAF3-FGFR3 (MIN IL3) pIC50&item= COc1cc(OC)cc(N(Cc2noc(C)n2)c2ccc3ncc(-c4cnn(C)c4)nc3n2)c1 [Compound 186]
~7.11

GET /values?readout=BAF3-FGFR3 (MIN IL3) pIC50&item= COc1cc(/N=c2\ccc3ncc(-c4cnn(C)c4)nc3n2CC2CCC(=O)N2)cc(OC)c1 (stereo not shown) [Compound 248]
6.67

GET /values?readout=BAF3-FGFR3 (MIN IL3) pIC50&item= COc1cc(OC)c(F)c(/N=c2\ccc3ncc(-c4cnn(C)c4)nc3n2CCN)c1F [Compound 68]
7.70
